Exercise: state measured AC50 for each of the compounds provided.
Target: Heat shock protein HSP 90-alpha (Homo sapiens)
Assay type: functional, organism-based
Active and inactive are the calls of the source.

Ask: Provide only the value of recorded AC50 for O=C(N/N=C/c1ccccn1)c1cc(-c2ccc(Br)cc2)nc2ccccc12
Reply: 2240 nM (active)

Ask: Annotate the compound COc1ccc(CCN2C(=O)C=CC2=O)cc1OC with its measured AC50.
Reply: 3100 nM (active)

Ask: Give me measured AC50, please, for this compound: O=C1C2C3C=CC(C3)C2C(=O)N1CN(Cc1ccccc1)CN1C(=O)C2C3C=CC(C3)C2C1=O (centres undefined)
Reply: 17400 nM (active)

Ask: Fill in reported AC50 for this entry: CCN(CC)N=Nc1[nH]nc2nc(C)cc(C)c12
Reply: 2420 nM (active)

----------
Molecular target: Protein RecA (Mycobacterium tuberculosis, UniProt P9WHJ3)
Assay: Fluorescence Cell-Free Homogeneous Dose Retest to Identify Inhibitors of RecA-Intein Splicing Activity. [Related pubchem assays (depositor defined):AID2097, AID2223, AID489010, AID492950]
Assay type: functional
The source made the active and inactive calls.
Pick from t = active, f = inactive when you respond.

Ask: What classification did O=S(=O)(Nc1ccc(-n2cnnn2)cc1)c1ccc(F)c(F)c1F end up with in this test?
Reply: f

Ask: For this compound, state the assay outcome: CC1CCc2c(c3ccccc3n2C(=O)CCl)C1 (stereo not drawn)
Reply: t

Ask: Call for entry COc1cc(C2C(C#N)=C(N)Oc3[nH]nc(C)c32)ccc1OC(=O)c1ccccc1 (stereo not drawn) :
Reply: t

Ask: Dear colleague, could you share the recorded outcome for N#Cc1c(C#N)c(O)c2ccccc2c1O when you have a moment?
Reply: t

Ask: What did this assay record as the result for COc1ccc(C(C(=O)NC2CCCCC2)N(C(=O)CCl)c2cccc(Cl)c2)cc1 (stereo not drawn) ?
Reply: t

Ask: Lab log entry: Cc1[nH]n(-c2ccccc2)c(=O)c1C(C[N+](=O)[O-])c1ccc(Cl)cc1 (stereo not drawn) — outcome as called in the assay?
Reply: t

Ask: What classification did CCN1CCN(C(c2cccnc2)c2cc(Cl)c3cccnc3c2O)CC1 (stereo not drawn) end up with in this test?
Reply: t

Ask: Tell me the assay call for Cc1cccc(C(=O)NC2C(=O)NNC2c2ccc(Cl)cc2)c1 (stereo not drawn) please.
Reply: t

Ask: What did the test return for CCCCCC(=O)Cc1cc(O)cc2c1C(=O)Oc1cc(O)c(C(=O)O)c(CCCCC)c1O2 ?
Reply: t

Ask: Which outcome was entered for the compound Cc1ccc(-c2cc(-c3ccc(C)cc3)[n+](-c3ccc(C(=O)[O-])cc3)c(-c3ccc(C)cc3)c2)cc1 in this test?
Reply: t

Ask: Fill in: this test's call for COc1ccc(-c2csc(CCN3N=C(C)CC3=O)n2)cc1 is ___
Reply: t

Ask: Name the outcome recorded for CC(C)(C)OC(=O)N1CC=C2C(C#N)=C(N)C(C#N)(C#N)C(c3cccs3)C2C1 (stereo not drawn) in the assay.
Reply: t

Ask: What is the recorded call for this compound in the test? O=C(O)CC1SC(N/N=C/c2ccc(-c3ccc(Cl)cc3[N+](=O)[O-])o2)=NC1=O (stereo not drawn)
Reply: t

----------
Molecular target: Streptokinase A (Streptococcus pyogenes serotype M1)
Sequence (P10520 whole entry): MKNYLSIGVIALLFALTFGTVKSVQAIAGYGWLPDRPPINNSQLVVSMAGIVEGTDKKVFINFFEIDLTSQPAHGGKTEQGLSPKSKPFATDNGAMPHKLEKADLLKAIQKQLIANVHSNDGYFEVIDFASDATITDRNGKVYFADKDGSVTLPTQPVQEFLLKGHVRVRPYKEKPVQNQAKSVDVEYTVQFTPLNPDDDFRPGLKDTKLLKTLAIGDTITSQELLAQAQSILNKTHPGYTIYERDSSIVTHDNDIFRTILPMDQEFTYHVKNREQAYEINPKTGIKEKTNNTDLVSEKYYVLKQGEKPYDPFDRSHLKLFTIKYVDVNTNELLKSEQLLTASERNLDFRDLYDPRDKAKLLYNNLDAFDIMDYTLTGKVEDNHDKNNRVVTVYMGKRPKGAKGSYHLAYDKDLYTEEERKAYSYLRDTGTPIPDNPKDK
Assay: viability-normalized secreted streptokinase activity reduction – plasminogen activation absorbance, OD405, dose response (AID 1914);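 further: secreted streptokinase activity via plasminogen activation per viability signal from cell pellet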
Format: functional, Streptococcus pyogenes M1 GAS
Activity calls are given as the source filed them.
Answer each item with its documented EC50.

Ask: Give EC50 only, for CC1(C)CC(=O)C(C2C3=C(CC(C)(C)CC3=O)Oc3c(Br)cc(Br)cc32)=C(O)C1 (stereo not drawn) , using Streptokinase A (Streptococcus pyogenes serotype M1) data.
Reply: 24.8 µM (active)

Ask: Param request: EC50 | system Streptokinase A (Streptococcus pyogenes serotype M1) | item COC(=O)c1ccc(N2CCC(c3cc(-c4ccc(OC)cc4)n[nH]3)CC2)c([N+](=O)[O-])c1
Reply: > 150 µM (not active)

Ask: Consider the compound Sc1nc2ccccc2c2nc(-c3ccccc3)nn12 tested on Streptokinase A (Streptococcus pyogenes serotype M1); state its EC50.
Reply: > 150 µM (not active)

Ask: Supply EC50 measured with Streptokinase A (Streptococcus pyogenes serotype M1) for Cc1ccc(-c2cc(-c3ccc(C)cc3)[n+](-c3ccc(C(=O)[O-])cc3)c(-c3ccc(C)cc3)c2)cc1 .
Reply: > 150 µM (not active)

Ask: Please look at COc1ccc(-c2ncn(CCC#N)c2[N+](=O)[O-])cc1 and tell me its recorded EC50 on Streptokinase A (Streptococcus pyogenes serotype M1).
Reply: > 150 µM (not active)

Ask: Under Streptokinase A (Streptococcus pyogenes serotype M1): report EC50 of O=C1c2ccccc2C(=O)c2[nH]c(O)nc21 .
Reply: 130 µM (active)

Ask: Lab note: record EC50 of Cc1cccc(Nc2nc(-c3ccc(F)c(C)c3)cs2)n1 tested on Streptokinase A (Streptococcus pyogenes serotype M1).
Reply: > 50 µM (not active)

Ask: Name the value of EC50 reported for COCc1cc(Sc2c(Cl)cccc2Cl)nc(-c2ccccc2)n1 when tested on Streptokinase A (Streptococcus pyogenes serotype M1).
Reply: 9.31 µM (active)

Ask: For Streptokinase A (Streptococcus pyogenes serotype M1), give EC50 of the listed compound: CCCCCC(=O)Cc1cc(O)cc2c1C(=O)Oc1cc(O)c(C(=O)O)c(CCCCC)c1O2 [PHYSODIC ACID]
Reply: 15.9 µM (active)

Ask: Lab note: record EC50 of O=C(NCCCn1ccnc1)c1nn2c(C(F)(F)F)cc(-c3ccccc3)nc2c1Cl tested on Streptokinase A (Streptococcus pyogenes serotype M1).
Reply: > 150 µM (not active)

Ask: Check Streptokinase A (Streptococcus pyogenes serotype M1) data and give EC50 for O=C(Nc1ncc(Cc2ccccc2)s1)c1cccs1 .
Reply: > 150 µM (not active)

Ask: Please tell me the measured EC50 for CC(C)/C(=N/Nc1ccccc1[N+](=O)[O-])c1ccccc1 ; system: Streptokinase A (Streptococcus pyogenes serotype M1).
Reply: 18.4 µM (active)

Ask: State EC50 (Streptokinase A (Streptococcus pyogenes serotype M1)) of CCOc1ccc(N(CC(=O)NCc2ccc(C)cc2)S(=O)(=O)c2c(C)nc(O)nc2O)cc1 .
Reply: > 150 µM (not active)

Reference source for all entries: ChEMBL document CHEMBL1201862
